Tested on: anticorps anti-nef
Protocol Summary: ELISA for detection of anti-nef antibodies on coated peptides or nef
Type: binding, humain
Condition Info: Serum 3, anti-nef positive; 500 ng coated per well
Experimental: Des plaques de microtitration à 96 puits ont été recouvertes une nuit avec 500 ng de protéine nef bactérienne, à 37°C ou avec 500 ng de peptides synthétiques par puits dans 50µl de PBS à pH 7,4. Après saturation avec 400 µl de PBS pH 7,4, contenant 5% de caséine, durant 1 heure à 37°C et lavage avec PBS à pH 7,4, 0,5% de BSA, 0,01% tween, 50 µl de sérums à différentes dilutions ont été ajoutés pendant 2 heures à 37°C. […]
Where no end group is shown, it is not given here. The star is where a group is joined. Acm = CC(=O)NC*
Readout Label: intensité de l'immunoréactivité (OD), Serum 3

>  <Substance>
XCYKLVPVEPDKVEEANKGENTSLLHPVSLHGMDDPEREVLEWRFDSRL AFHHVARELHPEYFKNCZ [PF17, protéine F HIV-1, séquence 141-205]

>  <Target Or System>
anticorps anti-nef

>  <Measured Value>
+ (pour OD = 0,2 à 0,4)

$$$$
>  <Substance>
GMDDPEREVLEWRFDSRLAFHHVARELHPEYFKNC(acm) (GMDDPEREVLEWRFDSRLAFHHVARELHPEYFKNC(Acm)) [PF16, protéine F HIV-1, séquence 171-205]

>  <Target Or System>
anticorps anti-nef

>  <Measured Value>
+ (pour OD = 0,2 à 0,4)

$$$$
